- System: HeLa Kyoto;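 note: HeLa Kyoto cells synchronized by double thymidine or nocodazole block, proteins quantified by TMT10plex mass spectrometry, three independent biological replicates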
- experiment_summary: melting temperature (median over replicates), in situ; higher = more thermally stable
- cond: cell cycle stage: mitosis
parameter: melting temperature
Kindly report the value followed by its unit.

- seq_text: "MAAACRSVKGLVAVITGGASGLGLATAERLVGQGASAVLLDLPNSGGEAQAKKLGNNCVFAPADVTSEKDVQTALALAKGKFGRVDVAVNCAGIAVASKTYNLKKGQTHTLEDFQRVLDVNLMGTFNVIRLVAGEMGQNEPDQGGQRGVIINTASVAAFEGQVGQAAYSASKGGIVGMTLPIARDLAPIGIRVMTIAPGLFGTPLLTSLPEKVCNFLASQVPFPSRLGDPAEYAHLVQAIIENPFLNGEVIRLDGAIRMQP [HSD17B10]"
  measured_result: "54.4 °C"
- seq_text: "MAAETRNVAGAEAPPPQKRYYRQRAHSNPMADHTLRYPVKPEEMDWSELYPEFFAPLTQNQSHDDPKDKKEKRAQAQVEFADIGCGYGGLLVELSPLFPDTLILGLEIRVKVSDYVQDRIRALRAAPAGGFQNIACLRSNAMKHLPNFFYKGQLTKMFFLFPDPHFKRTKHKWRIISPTLLAEYAYVLRVGGLVYTITDVLELHDWMCTHFEEHPLFERVPLEDLSEDPVVGHLGTSTEEGKKVLRNGGKNFPAIFRRIQDPVLQAVTSQTSLPGH [METTL1]"
  measured_result: "54.7 °C"
- seq_text: "MAEPDPSHPLETQAGKVQEAQDSDSDSEGGAAGGEADMDFLRNLFSQTLSLGSQKERLLDELTLEGVARYMQSERCRRVICLVGAGISTSAGIPDFRSPSTGLYDNLEKYHLPYPEAIFEISYFKKHPEPFFALAKELYPGQFKPTICHYFMRLLKDKGLLLRCYTQNIDTLERIAGLEQEDLVEAHGTFYTSHCVSASCRHEYPLSWMKEKIFSEVTPKCEDCQSLVKPDIVFFGESLPARFFSCMQSDFLKVDLLLVMGTSLQVQPFASLISKAPLSTPRLLINKEKAGQSDPFLGMIMGLGGGMDFDSKKAYRDVAWLGECDQGCLALAELLGWKKELEDLVRREHASIDAQSGAGVPNPSTSASPKKSPPPAKDEARTTEREKPQ [SIRT2]"
  measured_result: "52.5 °C"
- seq_text: "MDGPVAEHAKQEPFHVVTPLLESWALSQVAGMPVFLKCENVQPSGSFKIRGIGHFCQEMAKKGCRHLVCSSGGNAGIAAAYAARKLGIPATIVLPESTSLQVVQRLQGEGAEVQLTGKVWDEANLRAQELAKRDGWENVPPFDHPLIWKGHASLVQELKAVLRTPPGALVLAVGGGGLLAGVVAGLLEVGWQHVPIIAMETHGAHCFNAAITAGKLVTLPDITSVAKSLGAKTVAARALECMQVCKIHSEVVEDTEAVSAVQQLLDDERMLVEPACGAALAAIYSGLLRRLQAEGCLPPSLTSVVVIVCGGNNINSRELQALKTHLGQV [SDSL]"
  measured_result: "57.9 °C"

With those in mind, consider the next sequence.
Problem: melting temperature for MAGPAWISKVSRLLGAFHNPKQVTRGFTGGVQTVTLIPGDGIGPEISAAVMKIFDAAKAPIQWEERNVTAIQGPGGKWMIPSEAKESMDKNKMGLKGPLKTPIAAGHPSMNLLLRKTFDLYANVRPCVSIEGYKTPYTDVNIVTIRENTEGEYSGIEHVIVDGVVQSIKLITEGASKRIAEFAFEYARNNHRSNVTAVHKANIMRMSDGLFLQKCREVAESCKDIKFNEMYLDTVCLNMVQDPSQFDVLVMPNLYGDILSDLCAGLIGGLGVTPSGNIGANGVAIFESVHGTAPDIAGKDMANPTALLLSAVMMLRHMGLFDHAARIEAACFATIKDGKSLTKDLGGNAKCSDFTEEICRRVKDLD [IDH3A] ?
Solution: 54.6 °C
